# measured_on: T1, cynomolgus monkey IL-2Rβ/CD122 subunit (cynomolgus monkey) (UniProt Q38J85)
# T1 sequence (looked up): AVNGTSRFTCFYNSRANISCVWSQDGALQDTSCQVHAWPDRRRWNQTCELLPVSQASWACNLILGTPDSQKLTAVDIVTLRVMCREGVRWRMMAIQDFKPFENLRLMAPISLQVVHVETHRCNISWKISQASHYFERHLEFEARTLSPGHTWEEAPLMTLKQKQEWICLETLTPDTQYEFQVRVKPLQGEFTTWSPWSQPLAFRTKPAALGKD
# test_details: ELISA, monovalent VHH-hFc
measured_parameter: pEC50
The scale used: pEC50 is minus the common logarithm of the concentration in molar units.

Given 17-MP02C09 VHH-hFc, monospecific monovalent (Fc fusion, part only; not given: Both Fc arms and linker, not shown: another chain or arm of the molecule; a dimerising Fc or GST; large carriers; small tags and cut ends) VHH: QVQLQESGGGLVQAGGSLRLSCVASGSVSSINGMAWYRQGADNQRVLVAAISRVGNTAYGDSVKGRFTISRQNARNTVYLQMNSLKPEDTAVYYCNADSWGGDDYWGQGTQVTVSS , respond with its pEC50.
9.31

Identify measured pEC50 corresponding to 16-MP02B08 VHH-hFc, monospecific monovalent (Fc fusion, part only; not given: Both Fc arms and linker, not shown: another chain or arm of the molecule; a dimerising Fc or GST; large carriers; small tags and cut ends) VHH: EVQLVESGGGLVQAGGSLRLSCAASGRAIENYPVGWFRQAPGKEREFVAAITWISGSTLYADSVKGRFTISRDNAKNTVYLQMSSLKPEDTALYYCAAALKTITRGQNDYSYWGQGTQVTVSS
9.55

Dear colleague, please send me the reported pEC50 for 19-MP03F08 VHH-hFc, monospecific monovalent (Fc fusion, part only; not given: Both Fc arms and linker, not shown: another chain or arm of the molecule; a dimerising Fc or GST; large carriers; small tags and cut ends) VHH: EVQLVESGGGLVQTGGSLRLSCAASGGTFSRDAMAWFRQVPGKEREFVALISWSGATTNYADSVKGRFAISRDNGKNTVYLQMNRLKPADTAIYYCAADRRPMGSRSYFEPTEYDDWGQGTQVTVSS when you can.
9.02

Fill in pEC50 for record 24-MP06E05 VHH-hFc, monospecific monovalent (Fc fusion, part only; not given: Both Fc arms and linker, not shown: another chain or arm of the molecule; a dimerising Fc or GST; large carriers; small tags and cut ends) VHH: QVQLVESGGELVQGGASLRLSCAASGRTFSNANMAWFRQAPEKEREFVALITWSSGSTLYADSVKGRFTISRDNARKMVYLQMNSLKPEDTAVYYCAADGPPYSGTYYRYDTYDYWGQGTQVTVSS
9.18
